TARGET_DESC: Beta-secretase 2 (Homo sapiens)
Sequence (Q9Y5Z0 whole entry): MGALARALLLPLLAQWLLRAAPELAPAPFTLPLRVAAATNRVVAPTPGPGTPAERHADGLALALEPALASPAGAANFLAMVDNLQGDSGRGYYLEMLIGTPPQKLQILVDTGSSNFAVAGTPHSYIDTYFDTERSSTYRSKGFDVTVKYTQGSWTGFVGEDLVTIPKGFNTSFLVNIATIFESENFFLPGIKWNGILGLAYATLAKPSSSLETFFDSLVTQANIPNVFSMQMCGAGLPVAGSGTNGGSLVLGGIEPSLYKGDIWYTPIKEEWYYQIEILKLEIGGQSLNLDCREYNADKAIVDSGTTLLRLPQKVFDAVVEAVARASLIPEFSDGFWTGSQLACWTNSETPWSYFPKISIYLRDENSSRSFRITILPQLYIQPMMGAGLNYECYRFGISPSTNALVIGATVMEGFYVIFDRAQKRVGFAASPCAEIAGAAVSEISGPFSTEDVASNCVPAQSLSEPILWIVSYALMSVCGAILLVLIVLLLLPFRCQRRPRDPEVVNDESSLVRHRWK
ASSAY_METHOD_TEXT: BACE-2 Assay: The compounds of the invention were determined to be potent inhibitors of BACE-2 using the following assay. Inhibitor IC50s at purified human autoBACE-2 are determined in a time-resolved endpoint proteolysis assay that measures hydrolysis of the QSY7-[…]-Eu-amide FRET peptide substrate (BACE-HTRF assay). BACE-mediated hydrolysis of this peptide results in an increase in relative fluorescence (RFU) at 620 nm after excitation with 320 nm light Inhibitor compounds, prepared at 3× the desired final concentration in 1×BACE assay buffer (20 mM sodium acetate pH 5.0, 10% glycerol, 0.1% Brij-35) supplemented with 7.5% DMSO are pre-incubated with an equal volume of autoBACE-2 enzyme diluted in 1×BACE assay buffer (final enzyme concentration 1 nM) in black 384-well NUNC plates for 30 minutes at 30° C. […] DMSO is present at 5% final concentration in the assay. Following laser excitation of sample wells at 320 nm, the fluorescence signal at 620 nm is collected for 400 ms following a 50 μs delay on a RUBYstar HTRF plate reader (BMG Labtechnologies). Raw RFU data is normalized to maximum (1.0 nM BACE/DMSO) and minimum (no enzyme/DMSO) RFU values.
VALUE_TYPE: Ki (nM)

C[C@@]1(c2cc(Nc3nccc4cc(F)cnc34)ncc2F)CS(=O)(=O)[C@@](C)(C2CC2)C(N)=N1 :: 1

I. CC#CCOc1cnc2c(Nc3cc([C@]4(C)CS(=O)(=O)[C@@](C)(C5CC5)C(N)=N4)c(F)cn3)nccc2n1
II. COc1cnc2c(Nc3cc([C@]4(C)CS(=O)(=O)[C@@](C)(C5CC5)C(N)=N4)c(F)cn3)ccnc2n1
Q: So which one has the bigger Ki here, I or II ? Selection: enter the item's label.
Ans: II
